target_desc: His-tagged human recombinant kinase full-length Akt2 activated by PDK1 (Homo sapiens (Human))
Sequence (P31751 whole entry): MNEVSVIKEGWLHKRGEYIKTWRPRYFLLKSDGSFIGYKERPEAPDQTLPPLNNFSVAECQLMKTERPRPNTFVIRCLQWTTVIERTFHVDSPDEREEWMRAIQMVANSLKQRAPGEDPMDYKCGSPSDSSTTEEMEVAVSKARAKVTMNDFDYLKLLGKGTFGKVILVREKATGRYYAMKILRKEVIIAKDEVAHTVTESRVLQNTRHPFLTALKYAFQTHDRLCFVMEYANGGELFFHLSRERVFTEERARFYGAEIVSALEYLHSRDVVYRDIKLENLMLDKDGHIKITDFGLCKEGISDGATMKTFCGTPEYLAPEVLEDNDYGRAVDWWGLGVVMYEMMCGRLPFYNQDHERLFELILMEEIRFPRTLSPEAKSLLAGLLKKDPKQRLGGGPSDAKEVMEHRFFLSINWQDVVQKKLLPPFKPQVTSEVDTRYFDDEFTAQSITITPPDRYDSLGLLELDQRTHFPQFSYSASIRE
protocol_details: Akt2 kinase assay (Akt2 TR-FRET assay, Biological Assay 2.0)
experimental_conditions: 10 μM ATP, 1 μM biotinylated peptide substrate, 60 min at 22° C.
property_label: IC50 (nM)
Only the number, expressed in nM, is required.

Solved cases (3 shown):
1) CC(C)Nc1c(-c2ccccc2)c(-c2ccc(CN3CC(c4n[nH]c(-c5ccccn5)n4)C3)cc2)nc2nc(-c3ccccn3)nn12 | 88
2) Cc1cccc(-c2nc(C3CCN(Cc4ccc(-c5nc6ncc(Br)n6cc5-c5ccc(F)cc5)cc4)CC3)n[nH]2)n1 | 7
3) CC(C)c1nc2nc(-c3ccc(CN4CCC(c5cnc6ccccc6n5)CC4)cc3)c(-c3ccccc3)cn2n1 | 509

Consider the record given below.
Look at this compound and give its reported IC50. `CNc1c(-c2ccccc2)c(-c2ccc(CN3CC(c4n[nH]c(-c5ccccn5)n4)C3)cc2)nc2ncc(Br)n12` 128

###

Some compounds, each annotated with its measured pIC50.
target_desc: His-tagged human recombinant kinase full-length Akt2 activated by PDK1 (Homo sapiens (Human))
protocol_details: Akt2 kinase assay (Akt2 TR-FRET assay, Biological Assay 2.0)
experimental_conditions: 10 μM ATP, 1 μM biotinylated peptide substrate, 60 min at 22° C.
As a rule, pIC50 stands for the negative log10 of the concentration, concentration in M.

Solved cases (2 shown):
1) CC(C)c1nc2nc(-c3ccc(CN4CC(c5n[nH]c(-c6ccccn6)n5)C4)cc3)c(-c3ccccc3)cn2n1 | 7.46
2) N#Cc1ccc2nc(C3CCN(Cc4ccc(-c5nc6ccnn6cc5-c5ccccc5)cc4)CC3)[nH]c2c1 | 6.50

Consider the record given below.
Look at this compound and give its reported pIC50. Cc1nc2nc(-c3ccc(CN4CCC(c5n[nH]c(-c6ccccn6)n5)C4)cc3)c(-c3ccccc3)cn2n1 (racemic) 6.36

###

Some molecules, each annotated with its measured IC50.
target_desc: His-tagged human recombinant kinase full-length Akt1 (Homo sapiens (Human), UniProt P31749)
Sequence (P31749 whole entry): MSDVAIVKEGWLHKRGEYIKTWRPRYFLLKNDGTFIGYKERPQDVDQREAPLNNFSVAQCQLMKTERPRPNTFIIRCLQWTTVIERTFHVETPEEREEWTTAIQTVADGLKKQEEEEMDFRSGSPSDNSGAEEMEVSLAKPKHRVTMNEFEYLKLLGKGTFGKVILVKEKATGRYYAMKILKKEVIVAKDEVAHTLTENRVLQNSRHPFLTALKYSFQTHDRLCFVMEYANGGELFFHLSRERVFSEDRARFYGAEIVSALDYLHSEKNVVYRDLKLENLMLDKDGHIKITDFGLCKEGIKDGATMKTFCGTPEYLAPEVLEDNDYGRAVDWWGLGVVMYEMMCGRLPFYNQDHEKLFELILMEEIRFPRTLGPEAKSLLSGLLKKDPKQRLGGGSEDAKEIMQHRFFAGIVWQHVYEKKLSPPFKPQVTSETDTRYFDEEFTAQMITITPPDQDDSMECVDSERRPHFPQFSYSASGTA
protocol_details: Akt1 kinase assay (Akt1 TR-FRET assay, Biological Assay 1.0)
experimental_conditions: 10 μM ATP, 1 μM biotinylated peptide substrate, 60 min at 22° C.
Only the number, expressed in nM, is required.

Solved cases (2 shown):
1. Cc1nc2nc(-c3ccc(CN4CCC(c5n[nH]c(-c6ccccn6)n5)C4)cc3)c(-c3ccccc3)cn2n1 (racemic) [Example 24.0] | 44
2. Cc1nc2nc(-c3ccc(CN4CCC(c5n[nH]c(-c6cc(Cl)ccn6)n5)CC4)cc3)c(-c3ccc(F)cc3F)cn2n1 [Example 50.0] | 22

Consider the record given below.
Look at this molecule and give its reported IC50. COC(=O)c1cnn2cc(-c3c(F)cccc3F)c(-c3ccc(CN4CCC(c5n[nH]c(-c6ccccn6)n5)CC4)cc3)nc12 [Example 48.1] 5
